MEASURED TARGET: human recombinant PDE4B (Homo sapiens (Human), UniProt Q07343, S133E/S654A/S659A/S661A)
Sequence (Q07343 122-736 S133E/S654A/S659A/S661A): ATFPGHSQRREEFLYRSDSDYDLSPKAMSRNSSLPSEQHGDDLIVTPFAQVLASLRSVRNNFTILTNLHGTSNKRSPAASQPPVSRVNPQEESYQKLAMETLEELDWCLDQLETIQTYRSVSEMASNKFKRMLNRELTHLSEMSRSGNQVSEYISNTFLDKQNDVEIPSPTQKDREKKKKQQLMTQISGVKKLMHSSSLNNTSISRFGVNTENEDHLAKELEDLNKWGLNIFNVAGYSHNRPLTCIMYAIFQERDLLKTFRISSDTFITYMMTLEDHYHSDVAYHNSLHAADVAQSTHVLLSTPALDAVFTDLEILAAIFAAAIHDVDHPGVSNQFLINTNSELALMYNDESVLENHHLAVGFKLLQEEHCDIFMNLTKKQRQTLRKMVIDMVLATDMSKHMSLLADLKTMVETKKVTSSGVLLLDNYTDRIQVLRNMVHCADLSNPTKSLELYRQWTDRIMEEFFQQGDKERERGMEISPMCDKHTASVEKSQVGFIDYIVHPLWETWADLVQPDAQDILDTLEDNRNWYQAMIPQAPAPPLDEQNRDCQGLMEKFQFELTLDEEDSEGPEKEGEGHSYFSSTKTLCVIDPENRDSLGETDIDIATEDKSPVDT
RUN PARAMETERS: read-out: Human PDE4B FL
MEASUREMENT KIND: pIC50
For clarity, pIC50 is expressed as the negative log10 of concentration in mol/L.

>  <TEST SMILES>
Cc1cc(Cl)ccc1-n1c(C(=O)N2CCC2)nc2cccnc21

>  <pIC50>
6.40

$$$$

Suppose we examine the molecule COc1cncc(-n2c(C(=O)NC3CC3)nc3cccnc32)c1 ; what pIC50 value has been reported?
4.87

Suppose we examine the molecule O=C(NC1CC1)c1nc2cccnc2n1-c1ccccc1 ; what pIC50 value has been reported?
5.94

Suppose we examine the molecule Cc1ccc(-n2c(C(=O)NC3CC3)nc3cccnc32)c(F)c1 ; what pIC50 value has been reported?
6.21

Suppose we examine the molecule Cc1ccc(-n2c(C(=O)NC3CC3)nc3cccnc32)cn1 ; what pIC50 value has been reported?
5.11

Suppose we examine the molecule CN(C)C(=O)c1nc2cccnc2n1-c1ccc(Cl)c(F)c1 ; what pIC50 value has been reported?
6.39

Suppose we examine the molecule O=C(c1nc2cccnc2n1-c1ccc(Cl)cc1F)N1CCC1 ; what pIC50 value has been reported?
6.56

Suppose we examine the molecule O=C(NC1CC1)c1nc2cccnc2n1C1CCOCC1 ; what pIC50 value has been reported?
5.76

Suppose we examine the molecule Cc1nc2ccc(-n3c(C(=O)NC4CC4)nc4cccnc43)cc2s1 ; what pIC50 value has been reported?
6.29
